Source: ChEMBL document CHEMBL5608226

- run description: Ratio of AUC (0 to 4 hr) for test compound to AUC (0 to 4 hr) for Ketamine HCL in Sprague-Dawley rat at 4.64 mg/kg,po administration measured upto 4 hrs
- Assay type: ADME, organism-based
- cond: in vivo
# Ratio annotations
property measured: Ratio (%)

compound="CC[C@H](C)[C@H](NC(=O)c1ccc[n+](COC(=O)N(C)C2(c3ccccc3Cl)CCCCC2=O)c1)C(=O)O.[Cl-] (stereo partly specified)" property_measured=Ratio result_value=223
compound="CN(CC(=O)O)C(=O)c1ccc[n+](COC(=O)N(C)C2(c3ccccc3Cl)CCCCC2=O)c1.[Cl-] (stereo unspecified)" property_measured=Ratio result_value=93.9
compound="CN(C(=O)OC[n+]1cccc(C(=O)N[C@@H](CCCCN)C(=O)O)c1)C1(c2ccccc2Cl)CCCCC1=O.Cl.[Cl-] (stereo partly specified)" property_measured=Ratio result_value=75.4
compound="C[C@H](NC(=O)c1ccc[n+](COC(=O)N(C)C2(c3ccccc3Cl)CCCCC2=O)c1)C(=O)O.[Cl-] (stereo partly specified)" property_measured=Ratio result_value=63.2
compound="CC(C)[C@H](NC(=O)c1ccc[n+](COC(=O)N(C)C2(c3ccccc3Cl)CCCCC2=O)c1)C(=O)O.[Cl-] (stereo partly specified)" property_measured=Ratio result_value=160
compound="CN(C(=O)OC[n+]1cccc(C(=O)N2CCC[C@H]2C(=O)O)c1)C1(c2ccccc2Cl)CCCCC1=O.[Cl-] (stereo partly specified)" property_measured=Ratio result_value=166
